# MTD annotations
test-protocol: Toxicity: maximum tolerated dose in the mouse, oral route
run-parameters: in vivo
Where a name gives a salt, the structure may show the parent alone.
readout-label: MTD (mg/kg)

| molecule | unit-of-measurement | recorded-result |
| --- | --- | --- |
| CC(SC[C@H](N)C(=O)O)c1ccc(Cl)cc1 (stereo partly drawn) [LJ 550] | mg/kg | 4000 |
| C=CCSC[C@H](N)C(=O)OC(C)C [LJ 566, hydrochloride] | mg/kg | 1500 |
| N[C@@H](CSCc1cccnc1)C(=O)O [LJ 546] | mg/kg | 9000 |

====

Tested on: plasma cholesterol
test-protocol: Plasma cholesterol in cholesterol-fed rabbits (Pearson method, Technicon auto-analyser)
Assay type: in vivo, rabbit (male albino Bouscat)
run-parameters: first test; rabbit, 200 mg/kg oral (oesophagal probe), 5 days per week, 12 weeks; diet only 1.47
# Plasma cholesterol annotations
readout-label: Plasma cholesterol (g/L)

| compound | recorded-result |
| --- | --- |
| CC(SC[C@H](N)C(=O)O)c1ccc(Cl)cc1 (some centres unmarked) | 1.17 |
| N[C@@H](CSCc1cccnc1)C(=O)O | 0.99 |
| N[C@@H](CSCC=Cc1ccccc1)C(=O)O | 1.2 |
| C=CCSC[C@H](NC(=O)CC[C@H](N)C(=O)O)C(=O)NCC(=O)O | 1.36 |
| CC(=Cc1ccccc1)CCSC[C@H](N)C(=O)O | 1.29 |
